- assay_details: calorie-restriction mimetic ROS inhibitors, yeast – validation compound set, pilot screen (AID 2706);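 further: yeast exposed to compound for one week at 30 degrees C before staining; 100% = mean of all compound wells on the same plate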
- assay_setup: S. cerevisiae aging, superoxide DHE fluorescence; at 10 µM; stronger effect = lower value
As shown below, each of these molecules has a reported superoxide response (% of plate) value.
measure: superoxide response (% of plate) (%)

[[record]]
molecule = "Cc1ccc(CN2CCN(CCCc3ccccc3)CC2CCO)cc1 (configuration not stated)"
measure = "superoxide response (% of plate)"
observed_result = 106

[[record]]
molecule = "Oc1[nH]c2ccccc2c1C1=NCCCC1"
measure = "superoxide response (% of plate)"
observed_result = 84.9

[[record]]
molecule = "CC(C)CN1CCN(Cc2ccc3ncccc3c2)CC1CCO (configuration not stated)"
measure = "superoxide response (% of plate)"
observed_result = 95

[[record]]
molecule = "Nc1ccn([C@@H]2O[C@H](CO)[C@@H](O)[C@@H]2O)c(=O)n1"
measure = "superoxide response (% of plate)"
observed_result = 108

[[record]]
molecule = "COc1ccccc1/C=C/C(=O)OCCN1CCOCC1"
measure = "superoxide response (% of plate)"
observed_result = 126

[[record]]
molecule = "Cc1cc(=O)c2c(O)c(O)ccc2o1"
measure = "superoxide response (% of plate)"
observed_result = 105

[[record]]
molecule = "CC1=C(/C=C/C(C)=C/C=C/C(C)=C/C(=O)O)C(C)(C)CCC1"
measure = "superoxide response (% of plate)"
observed_result = 93.6

[[record]]
molecule = "CCOC(=O)c1ccc(N2C(=O)C(CC(=O)NC)N(CCc3ccc(OC)c(OC)c3)C2=S)cc1 (configuration not stated)"
measure = "superoxide response (% of plate)"
observed_result = 113

[[record]]
molecule = "CCOc1ccc(OCCSc2nc3ccccc3[nH]2)cc1"
measure = "superoxide response (% of plate)"
observed_result = 107

[[record]]
molecule = "CCc1cc(/C(Cc2ccccn2)=N\\O)c(O)cc1O"
measure = "superoxide response (% of plate)"
observed_result = 104

[[record]]
molecule = "CCc1cc(=O)oc2cc(OCc3nn[nH]n3)ccc12"
measure = "superoxide response (% of plate)"
observed_result = 106

[[record]]
molecule = "O=C(O)c1ccc(OCCn2ccnc2)cc1"
measure = "superoxide response (% of plate)"
observed_result = 91.6


====

- test_target: Regulator of G-protein signaling 7 (Homo sapiens)
- assay_details: small molecules altering RGS protein interactions with GNAO1 – biochemical, multiplexed beads, flow cytometry, RGS4/7/8/16/19, primary screen (AID 1504);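 further: fluorescently labeled Galpha-o bound to GDP with aluminium fluoride binding biotinylated RGS beads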
- assay_setup: multiplexed bead flow cytometry, measured here: RGS7 interaction, at 10 µM
This is one part of the list.
measure: RGS7–Galpha-o binding response (%)

[[record]]
compound = "COc1cccc(C(=O)NCCSc2ccc(Br)cc2)c1"
observed_result = 16.5

[[record]]
compound = "Cn1c(=O)c2c(n(Cc3ccccc3)c1=O)NC(=O)C2CC(=O)N1CCc2ccccc2C1 (configuration not stated)"
observed_result = 13.5

[[record]]
compound = "COc1cc(C2/C(=C(\\O)c3ccc4c(c3)CC(C)O4)C(=O)C(=O)N2Cc2ccco2)ccc1O (configuration not stated)"
observed_result = 17.7

[[record]]
compound = "CC(=O)N1CC[n+]2c(-c3ccc([N+](=O)[O-])cc3)csc21"
observed_result = 102

[[record]]
compound = "Cc1ccc(S(=O)(=O)NCC(=O)OCC(=O)N2CCc3ccccc32)cc1"
observed_result = 139

[[record]]
compound = "CCCC1C(c2ccccc2)C(C#N)(C#N)C2(C#N)CC1(N)NC2=O (configuration not stated)"
observed_result = 152

[[record]]
compound = "COc1ccc(-n2c(SCC(=O)OC(C)C)nnc2-c2ccccn2)cc1"
observed_result = 101

[[record]]
compound = "O=C(Nc1ccccc1)c1cc2ccccc2[nH]1"
observed_result = 89.9

[[record]]
compound = "CCOc1cc(C(=O)N2CCc3cc(OC)c(OC)cc3C2)ccc1OC(F)F"
observed_result = 159

[[record]]
compound = "COc1ccc(C(=O)NNc2cc(C)nc(NNC(=O)c3ccc(OC)cc3)n2)cc1"
observed_result = 72.3

[[record]]
compound = "O=[N+]([O-])C(=c1ccc2c(c1)N1C3=C(CCCC3)CC3CCCCC31N=2)[N+](=O)[O-] (configuration not stated)"
observed_result = -195

[[record]]
compound = "C=CCn1c(=NC(=O)c2cccs2)sc2cc(NC(C)=O)ccc21"
observed_result = 152

[[record]]
compound = "FC(F)Oc1ccccc1C1CC(c2ccc(Br)s2)Nc2ncnn21 (configuration not stated)"
observed_result = 163

[[record]]
compound = "O=C(CN1CCOCC1)Nc1ccccc1"
observed_result = 112

[[record]]
compound = "Oc1ccc(-c2onc3ccc(Cl)cc23)cc1"
observed_result = 110

[[record]]
compound = "CCOC(=O)C1=C(c2ccccc2)N=C2SCC(=O)N2C1c1ccc(O)c(OC)c1 (configuration not stated)"
observed_result = 122

[[record]]
compound = "CCC(=O)Nc1c(S(=O)(=O)c2ccccc2)c2nc3ccccc3nc2n1Cc1ccccc1"
observed_result = 87.2

[[record]]
compound = "Cc1cc(=O)n2[nH]c(-c3sccc3-n3c(C)ccc3C)cc2n1"
observed_result = -34.3

[[record]]
compound = "CC(=O)Nc1nc(N(C)C)nc(N(C)C)n1"
observed_result = -0.2

[[record]]
compound = "COc1ccc(C(=O)COC(=O)c2ccc3ccccc3n2)cc1"
observed_result = 39

[[record]]
compound = "CCn1c(CSCc2c(Cl)cccc2Cl)n[nH]c1=S"
observed_result = -29.3

[[record]]
compound = "CCN(CC)S(=O)(=O)c1cccc(-c2n[nH]c(=S)n2/N=C/c2ccc(C(=O)OC)cc2)c1"
observed_result = 133

[[record]]
compound = "C/C(=C/C(=O)N1CCN(C)CC1)C(=O)O"
observed_result = 105

[[record]]
compound = "Cc1ccc(C)c(OCC(=O)N2CCN(C(=O)c3ccco3)CC2)c1"
observed_result = 89.8

[[record]]
compound = "CCCC(=O)N=c1sc2cccc(F)c2n1C"
observed_result = 18

[[record]]
compound = "CCCn1nnnc1NC(=O)COc1ccc(Cl)cc1C"
observed_result = 17.1

[[record]]
compound = "Cc1cc(C)cc(N(CC(=O)Nc2c(C)n(C)n(-c3ccccc3)c2=O)S(C)(=O)=O)c1"
observed_result = -21.3

[[record]]
compound = "O=C(Nc1cccc(-c2nc3ccccc3[nH]2)c1)c1ccc(C(=O)Nc2cccc(-c3nc4ccccc4[nH]3)c2)cc1"
observed_result = 495

[[record]]
compound = "CN1CCN(C(CNS(=O)(=O)c2cccs2)c2cccnc2)CC1 (configuration not stated)"
observed_result = -9.98

[[record]]
compound = "NC(=O)CSc1c[nH]c2ccccc12"
observed_result = 25.2

[[record]]
compound = "O=C(NC1CC1)c1ccc2c(c1)NC(=O)c1ccccc1S2"
observed_result = 191

[[record]]
compound = "NC(=O)Cc1ccc2sc(-c3ccccc3)nc2c1"
observed_result = 92.4

[[record]]
compound = "CSc1ccc(CN2C(=O)NC3(CCCCCC3)C2=O)cc1"
observed_result = 219

[[record]]
compound = "COC(=O)c1ccccc1OCC(=O)N1CCN(c2ccc(Cl)cc2)CC1"
observed_result = 290

[[record]]
compound = "Cc1cc(C)nc(/N=C2\\NC(=O)CC(C(=O)O)N2c2ccc(Cl)cc2Cl)n1 (configuration not stated)"
observed_result = 170

[[record]]
compound = "CCN(CC)CCn1cnc2c1c(=O)n(CCOC(=O)c1cc(OC)c(OC)c(OC)c1)c(=O)n2C"
observed_result = 13

[[record]]
compound = "O=C(CSc1ccc2nnc(-c3ccccc3)n2n1)N1CCCc2ccccc21"
observed_result = 207

[[record]]
compound = "COCCNC(=S)N/N=C/c1c(C)[nH]c2ccccc12"
observed_result = 142

[[record]]
compound = "CN(c1ccccc1)c1ccc(/C=c2\\s/c(=C(/C#N)C(=O)C(C)(C)C)n(Cc3ccco3)c2=O)cc1"
observed_result = 421

[[record]]
compound = "CCOC(=O)C1Sc2[nH]c(=O)sc2C(c2ccc(Cl)cc2)C1C(=O)OCC (configuration not stated)"
observed_result = -17.7

[[record]]
compound = "O=C(Nc1cccc(F)c1)c1coc(=O)c(Br)c1"
observed_result = 45.3

[[record]]
compound = "CN(C)S(=O)(=O)Oc1ccccc1C(=O)Nc1ccccc1Cl"
observed_result = 223


====

- assay_details: reduced mouse 2C T cell binding to pMHC/ICAM-1 vesicles – MLPCN validation set, flow cytometry, LFA-1/ICAM-1 modulator project, pilot screen (AID 2523);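 further: mean PE anti-B7-1 fluorescence of CD8+ cells relative to row control; 100% = QL9-loaded vesicles with DMSO vehicle in the same plate row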
- assay_setup: 2C mouse CD8+ T cells, at 7 µM, stronger effect = lower value
Active and inactive are the calls of the source.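 How the source made its calls: active means response below a set limit, under 55% cells CD8-positive and vesicle-bound, and CD8 cells' 90th-percentile brightness under 279; inactive means the rest.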 Peptide text beside a SMILES is read from it.
measure: vesicle binding response

[[record]]
compound = "O=C1[C@@H]2CSCN2C(=O)CN1Cc1ccc(F)cc1"
observed_result = "235% (inactive)"

[[record]]
compound = "O=C(c1ccc(Cl)cc1)C1CCCN(Cc2ccc(Oc3ncccn3)cc2)C1 (configuration not stated)"
observed_result = "227% (inactive)"

[[record]]
compound = "Cc1ccc(C(=O)O)cc1NC(=O)c1cccs1"
observed_result = "206% (inactive)"

[[record]]
compound = "CCCCOn1c(C)c(C(C)=O)c2c3no[n+]([O-])c3ccc21"
observed_result = "246% (inactive)"

[[record]]
compound = "CCC1(c2ccccc2)NC(=S)N(c2ccc(C)c(C)c2)N1 (configuration not stated)"
observed_result = "184% (inactive)"

[[record]]
compound = "CC12CCC(C(=O)N(CCC#N)CCC#N)(CC1=O)C2(C)C (configuration not stated)"
observed_result = "5730% (inactive)"

[[record]]
compound = "Cc1ccccc1-c1nn(-c2ccc(F)cc2F)cc1CNCCN(C)C"
observed_result = "51.7% (inactive)"

[[record]]
compound = "Cc1ccc(/C(=C\\CN2CCCC2)c2ccccn2)cc1"
observed_result = "146% (inactive)"

[[record]]
compound = "NC(CO)C(=O)NNCc1ccc(O)c(O)c1O (configuration not stated)"
observed_result = "130% (inactive)"

[[record]]
compound = "Cc1ccc(C(=O)NCCNC(=O)c2ccccc2)cc1"
observed_result = "179% (inactive)"

[[record]]
compound = "CC[C@H](C)C(=O)O[C@H]1C[C@@H](C)C=C2C=C[C@H](C)[C@H](CC[C@@H]3C[C@@H](O)CC(=O)O3)[C@H]21"
observed_result = "126% (inactive)"

[[record]]
compound = "CC(=O)NC(CC(C)C)C(=O)NC(Cc1ccccc1)C(N)=O (stereo not drawn) (Ac-Leu-Phe-NH2; configuration not given here)"
observed_result = "128% (inactive)"

[[record]]
compound = "O=C(O)CCCNc1ccc(S(=O)(=O)Nc2ccccc2C(=O)O)cc1C(=O)O"
observed_result = "187% (inactive)"

[[record]]
compound = "COc1cccc(CN2C(=O)N(C(C)C)C(N(O)C(=O)NC(C)C)C2(C)C)c1OC (configuration not stated)"
observed_result = "216% (inactive)"

[[record]]
compound = "O=C(CN1C(=O)C2CCc3[nH]c4ccccc4c3C2C1=O)N1CCCC1 (configuration not stated)"
observed_result = "72.2% (active)"

[[record]]
compound = "O=C(NCCO)c1ccc(Cl)c(Cl)c1"
observed_result = "97% (inactive)"

[[record]]
compound = "CS(=O)(=O)Nc1cccc(C(=O)CC2(O)C(=O)Nc3ccc(Br)cc32)c1 (configuration not stated)"
observed_result = "34.1% (inactive)"

[[record]]
compound = "Cc1ccc(NC(=O)CSc2nc(O)c(Cc3ccccc3)c(=O)n2-c2ccccc2)cc1"
observed_result = "210% (inactive)"

[[record]]
compound = "CC1CCCC(C)N1NC(=O)c1ccc(Cl)c(S(N)(=O)=O)c1 (configuration not stated)"
observed_result = "128% (inactive)"

[[record]]
compound = "CN1C(C(=O)Nc2ccccn2)=C(O)c2ccccc2S1(=O)=O"
observed_result = "383% (inactive)"

[[record]]
compound = "O=[N+]([O-])c1cccc2cn[nH]c12"
observed_result = "56% (active)"

[[record]]
compound = "Cc1cccc(-c2ncc(CN3CCN(CC(C)C)C(CCO)C3)cn2)c1 (configuration not stated)"
observed_result = "344% (inactive)"

